- System: tubulin (bovine brain)
- METHOD_SUMMARY: tubulin polymerization end-point dOD, fold change relative to DMSO vehicle; higher = more polymerization (stabilization)
- MEASUREMENT_CONTEXT: 50 µM; 60 min; 37 °C
# key: entry, value: tubulin polymerization end-point dOD
ENDPOINT: tubulin polymerization end-point dOD (%)

molecule=Cc1cc2nc(/C=C/c3ccsc3)sc2cc1C endpoint="tubulin polymerization end-point dOD" unit_spec=% assay_value=237
molecule="COc1cc2c(cc1OC)C(c1cccs1)N(C(=O)Nc1ccc(Cl)cc1)CC2 (stereo unspecified)" endpoint="tubulin polymerization end-point dOD" unit_spec=% assay_value=70.5
molecule=Cc1ccc2cc(C)c3nn(CCNC(=O)c4ccncc4)c(=O)n3c2c1 endpoint="tubulin polymerization end-point dOD" unit_spec=% assay_value=-34.2
molecule=O=C(Nc1ccc(N2CCc3sccc3C2)nc1)c1ccccc1Br endpoint="tubulin polymerization end-point dOD" unit_spec=% assay_value=14.9
molecule=Clc1ccc2sc(/C=C/c3cccnc3)nc2c1 endpoint="tubulin polymerization end-point dOD" unit_spec=% assay_value=47.1
molecule="Cc1ccccc1/C=N/N=C1\\NC(=O)C(Cc2ccccc2C)S1 (stereo unspecified)" endpoint="tubulin polymerization end-point dOD" unit_spec=% assay_value=-10.8
